The measured values listed here are drawn from patent US5420128A.

# Lookup of reported IC50 keyed by entry
Biological target: rat prostate androgen receptor (Rattus norvegicus, UniProt P15207)
Construct: the supernatant was obtained as cytoplasm fraction; from tissue; host or cells: cytosol (105000×g supernatant) of rat ventral prostate, 24 hours after castration
Sequence (P15207 whole entry S389L): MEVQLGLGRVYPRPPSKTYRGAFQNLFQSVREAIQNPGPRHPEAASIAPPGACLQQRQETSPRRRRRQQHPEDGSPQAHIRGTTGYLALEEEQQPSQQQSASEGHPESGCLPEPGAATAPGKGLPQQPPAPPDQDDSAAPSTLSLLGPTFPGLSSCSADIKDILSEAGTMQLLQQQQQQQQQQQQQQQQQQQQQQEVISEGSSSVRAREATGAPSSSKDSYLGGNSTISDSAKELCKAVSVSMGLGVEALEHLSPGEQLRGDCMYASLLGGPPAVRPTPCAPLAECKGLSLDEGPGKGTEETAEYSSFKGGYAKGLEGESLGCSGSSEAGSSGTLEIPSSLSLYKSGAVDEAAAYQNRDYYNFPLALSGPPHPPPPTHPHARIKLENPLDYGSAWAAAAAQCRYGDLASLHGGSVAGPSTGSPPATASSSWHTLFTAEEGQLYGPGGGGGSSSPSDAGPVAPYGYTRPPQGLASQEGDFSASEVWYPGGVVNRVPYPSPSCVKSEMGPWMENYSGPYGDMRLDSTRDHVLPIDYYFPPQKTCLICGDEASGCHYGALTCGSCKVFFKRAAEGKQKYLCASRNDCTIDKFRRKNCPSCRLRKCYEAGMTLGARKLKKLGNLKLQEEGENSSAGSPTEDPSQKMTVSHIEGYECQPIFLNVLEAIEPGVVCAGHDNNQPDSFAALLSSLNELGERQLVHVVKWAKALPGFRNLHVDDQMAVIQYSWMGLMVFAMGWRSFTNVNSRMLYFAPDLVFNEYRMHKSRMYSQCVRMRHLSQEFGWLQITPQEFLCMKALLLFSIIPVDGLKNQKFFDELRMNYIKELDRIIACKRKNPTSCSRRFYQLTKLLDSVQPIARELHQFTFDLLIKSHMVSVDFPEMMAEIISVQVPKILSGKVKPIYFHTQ
Assay: inhibitory activity on binding of ^3 H-5α-DHT on rat prostate androgen receptor
Conditions: ^3 H-5α-DHT 1 nM, rat ventral prostate cytosol, about 20 hours at 0° C.; read-out: Inhibitory activity on 5α-DHT specific binding [IC50 (M)]

compound | uom | relation operator | IC50
O=S(=O)(Nc1cccnc1)c1ccc(-c2cnn3c(O)ncnc23)cc1 | M | = | 5e-06
O=S(=O)(Nc1ccccc1)c1ccc(-c2cnn3c(O)ncnc23)cc1 | M | = | 1.3e-07
Cc1cc(-c2cnn3c(O)ncnc23)ccc1S(=O)(=O)Nc1ccccc1 | M | = | 2.5e-07
Oc1ncnc2c(-c3ccc(Sc4ccccc4)c(Cl)c3)cnn12 | M | = | 2.2e-06
COc1cc(-c2cnn3c(O)ncnc23)ccc1Sc1ccccc1 | M | = | 3e-07
Cc1cc(-c2cnn3c(O)ncnc23)ccc1Sc1ccccc1 | M | = | 1.5e-07
O=S(=O)(Nc1ccc(Cl)cc1)c1ccc(-c2cnn3c(O)ncnc23)cc1 | M | = | 1.2e-06
Oc1ncnc2c(-c3ccc(Sc4ccccc4)cc3)cnn12 | M | = | 9.6e-07
CCc1ccc(NS(=O)(=O)c2ccc(-c3cnn4c(O)ncnc34)cc2)cc1 | M | < | 5e-06
CCc1cccc(NS(=O)(=O)c2ccc(-c3cnn4c(O)ncnc34)cc2)c1 | M | < | 5e-06
Cc1cc(-c2cnn3c(O)ncnc23)ccc1SCc1ccccc1 | M | = | 1.1e-07
Oc1ccnc2c(-c3ccc(Sc4ccccc4)cc3)cnn12 | M | = | 8.5e-07
CC(C)c1ccc(NS(=O)(=O)c2ccc(-c3cnn4c(O)ncnc34)cc2)cc1 | M | < | 5e-06
Cc1cccc(Sc2ccc(-c3cnn4c(O)ncnc34)cc2C)c1 | M | = | 1.3e-07
COc1ccc(Sc2ccc(-c3cnn4c(O)ncnc34)cc2C)cc1 | M | = | 1.2e-07
Cc1ccccc1Sc1ccc(-c2cnn3c(O)ncnc23)cc1C | M | = | 1.1e-06
Cc1ccc(Sc2ccc(-c3cnn4c(O)ncnc34)cc2C)cc1 | M | = | 1.5e-06
Cc1cc(-c2cnn3c(O)ncnc23)ccc1Sc1ccc(Br)cc1 | M | = | 4e-07
Cc1ccc(NS(=O)(=O)c2ccc(-c3cnn4c(O)ncnc34)cc2)cc1 | M | < | 5e-06
N#Cc1ccc(NS(=O)(=O)c2ccc(-c3cnn4c(O)ncnc34)cc2)cc1 | M | = | 6e-07
Cc1cc(O)n2ncc(-c3ccc(Sc4ccccc4)cc3)c2n1 | M | = | 5e-07
CCc1ccccc1NS(=O)(=O)c1ccc(-c2cnn3c(O)ncnc23)cc1 | M | < | 5e-06
O=S(=O)(NC1CCCCC1)c1ccc(-c2cnn3c(O)ncnc23)cc1 | M | = | 3.6e-07
COc1cccc(Sc2ccc(-c3cnn4c(O)ncnc34)cc2C)c1 | M | = | 1.6e-07
